Taken from ChEMBL document CHEMBL3885861.

- Species: Rattus norvegicus
- methodSummary: Open TG-GATES - Regimen: Daily Repeat
- Type: toxicity, organism-based, Sprague-Dawley
- Design: regimen Daily Repeat, gender Male, age 6 weeks
- testConditions: in vivo, po, 0 mg/kg, […], tissue Blood, route gavage, dose level Control, time 14 day
The following compounds are listed with their measured Plat values.
Please state the figure in x10_4/uL; there is no need to write the unit.

Please review the entries below; each comes with its answer.
CNC(=C[N+](=O)[O-])NCCSCc1ccc(CN(C)C)o1; 115.1
Cc1nnc2n1-c1ccc(Cl)cc1C(c1ccccc1Cl)=NC2; 122.6
NC1=NC(=O)C(c2ccccc2)O1 (stereo not drawn); 103.7
Nc1c2c(nc3ccccc13)CCCC2; 117.8
Brc1ccccc1; 113.5
O=C(OC[C@H]1O[C@@H](OC(=O)c2cc(O)c(O)c(OC(=O)c3cc(O)c(O)c(O)c3)c2)[C@H](OC(=O)c2cc(O)c(O)c(OC(=O)c3cc(O)c(O)c(O)c3)c2)[C@@H](OC(=O)c2cc(O)c(O)c(OC(=O)c3cc(O)c(O)c(O)c3)c2)[C@@H]1OC(=O)c1cc(O)c(O)c(OC(=O)c2cc(O)c(O)c(O)c2)c1)c1cc(O)c(O)c(OC(=O)c2cc(O)c(O)c(O)c2)c1; 125.4
CC(C)NNC(=O)c1ccncc1; 110.6

Query compound follows.
I'd like to know its Plat. The compound in question is CCOc1ccc(NC(C)=O)cc1
117.7

###

- Organism: Rattus norvegicus
- methodSummary: Open TG-GATES - Regimen: Single
- Type: toxicity, organism-based, Sprague-Dawley
- Parameters: regimen Single, gender Male, age 6 weeks
- testConditions: in vivo, po, 100 mg/kg, 6 h, tissue Blood, route gavage, dose level Low
The following compounds are listed with their measured MCH values.
Please state the figure in pg; there is no need to write the unit.

COC(=O)C1=C(C)NC(C)=C(C(=O)OC)C1c1ccccc1[N+](=O)[O-] [NIFEDIPINE]; 20.2
CN/C(=N/CCSCc1nc[nH]c1C)NC#N [CIMETIDINE]; 22.2
Cc1nnc2n1-c1ccc(Cl)cc1C(c1ccccc1Cl)=NC2 [TRIAZOLAM]; 21.1
O=C(OC[C@H]1O[C@@H](OC(=O)c2cc(O)c(O)c(OC(=O)c3cc(O)c(O)c(O)c3)c2)[C@H](OC(=O)c2cc(O)c(O)c(OC(=O)c3cc(O)c(O)c(O)c3)c2)[C@@H](OC(=O)c2cc(O)c(O)c(OC(=O)c3cc(O)c(O)c(O)c3)c2)[C@@H]1OC(=O)c1cc(O)c(O)c(OC(=O)c2cc(O)c(O)c(O)c2)c1)c1cc(O)c(O)c(OC(=O)c2cc(O)c(O)c(O)c2)c1 [TANNIC ACID]; 22.6

I'd like to know its MCH. The compound in question is CNC(=C[N+](=O)[O-])NCCSCc1ccc(CN(C)C)o1 [RANITIDINE]
22

###

- Organism: Rattus norvegicus
- methodSummary: Open TG-GATES - Regimen: Daily Repeat
- Assay type: toxicity, organism-based, Sprague-Dawley
- Set-up: regimen Daily Repeat, gender Male, age 6 weeks
- testConditions: in vivo, po, 0 mg/kg, […], tissue Plasma, route gavage, dose level Control, time 14 day
property: TG (mg/dL)
Please state the figure in mg/dL; there is no need to write the unit.

CNC(=C[N+](=O)[O-])NCCSCc1ccc(CN(C)C)o1; 124.8
CN1C(=O)CCS(=O)(=O)C1c1ccc(Cl)cc1 (stereo not drawn); 74.8

I'd like to know its TG. The compound in question is CCOc1ccc(NC(C)=O)cc1
129

I'd like to know its TG. The compound in question is CN/C(=N/CCSCc1nc[nH]c1C)NC#N
168.4

I'd like to know its TG. The compound in question is Brc1ccccc1
95

I'd like to know its TG. The compound in question is CCCc1cc(=O)[nH]c(=S)[nH]1
111.2

I'd like to know its TG. The compound in question is CC(C)NNC(=O)c1ccncc1
126.6

I'd like to know its TG. The compound in question is COC(=O)C1=C(C)NC(C)=C(C(=O)OC)C1c1ccccc1[N+](=O)[O-]
150.8
